system: HCT-116 cells; assay: HCT-116 cell proliferation assay (resazurin); format: cell-based; settings: Homo sapiens; Table 2, inhibition of cell proliferation; read-out: HCT-116
MEASURED ATTRIBUTE: IC50

Task item: Returns the measured IC50 for the input compound. Input: Cc1ccc(NC(=O)c2cc(C(F)(F)F)cnn2)cc1-c1ccnc(-c2ccnc(C(N)=O)c2)c1
Reply: < 0.1 µM

Task item: Field request: IC50 | item: CNC(=O)c1cc(-c2nc(NCCO)cc(-c3cc(NC(=O)c4cc(C(F)(F)F)cnn4)ccc3C)n2)ccn1
Reply: 0.5 to 1 µM

Task item: For the compound CNC(=O)c1cc(-c2cc(NCCO)nc(-c3cc(NC(=O)c4cc(C(F)(F)F)cnn4)ccc3C)n2)ccn1 , what IC50 is on record?
Reply: 1 to 10 µM

Task item: Quick one: IC50 for CNC(=O)c1cc(-c2cc(-c3cc(NC(=O)c4ccc(C(F)(F)F)nc4)ccc3C)cc(N[C@H](C)CO)n2)ccn1 ?
Reply: 1 to 10 µM

Task item: For the compound CNC(=O)c1cc(-c2cc(-c3cc(NC(=O)c4cc(Cl)cnn4)ccc3C)ccn2)ccn1 , what IC50 is on record?
Reply: 0.5 to 1 µM

Task item: // lookup IC50 for CNC(=O)c1cc(-c2cc(-c3cc(NC(=O)c4cnc(C(F)(F)F)nc4)ccc3C)ccn2)ccn1
Reply: 0.1 to 0.5 µM

Task item: What value of IC50 has been recorded for this entry: CNC(=O)c1cc(-c2cc(-c3cc(NC(=O)c4cncc(C(C)(F)F)c4)ccc3C)ccn2)ccn1
Reply: 0.5 to 1 µM

====

test system: MiaPaca-2 cells; experiment: MiaPaca-2 cell proliferation assay (resazurin); type: cell-based; conditions: Homo sapiens, MIA PaCa-2; Table 2, inhibition of cell proliferation; read-out: MiaPaca-2
pIC50: −log10 of the molar value.
Examples of compounds with documented pIC50 follow.

Here is how some compounds turned out for pIC50.
Task item: Quick one: pIC50 for CNC(=O)c1cc(-c2cc(-c3cc(NC(=N)c4cc(C5CC5)cnn4)ccc3C)ccn2)ccn1 ?
Reply: 5.00 to 6.00

Task item: Quick one: pIC50 of CNC(=O)c1cc(-c2cc(-c3cc(NC(=O)c4cc(C5CC5)cnn4)ccc3C)cc(NCCO)n2)ccn1 ?
Reply: 6.30 to 7.00

Task item: // lookup pIC50 for CNC(=O)c1cc(-c2cncc(-c3cc(NC(=O)c4ccc(C(F)(F)F)nc4)ccc3C)c2)ncn1
Reply: 5.00 to 6.00

Task item: Consider the compound shown here: CNC(=O)c1cc(-c2cc(-c3cc(NC(=O)c4cc(C(F)(F)F)cnn4)ccc3C)cc(C)n2)ccn1 What is its recorded pIC50?
Reply: 6.30 to 7.00

Moving on to another compound below.
Task item: Quick one: pIC50 for CNC(=O)c1cc(-c2cncc(-c3cc(NC(=O)c4cc(C(C)(F)F)cnn4)ccc3C)c2)ccn1 ?
Reply: 5.00 to 6.00

====

system: HCT-116 cells; experiment: HCT-116 cell proliferation assay (resazurin); assay type: cell-based; settings: Homo sapiens; Table 2, inhibition of cell proliferation; read-out: HCT-116
pIC50: −log10 of the molar value.
MEASURED ATTRIBUTE: pIC50

Task item: Requested field: pIC50. Item: CNC(=O)c1cc(-c2cc(-c3cc(NC(=O)c4cc(C(F)(F)F)cnn4)ccc3C)cc(NCCO)n2)ccn1
Reply: > 7.00

Task item: Which pIC50 is reported for this compound? CNC(=O)c1cc(-c2cc(-c3cc(NC(=O)c4cnc(C(F)(F)F)nc4)ccc3C)cc(N[C@H](C)CO)n2)ccn1
Reply: 5.00 to 6.00

Task item: Consider the compound CNC(=O)c1cc(-c2cc(-c3cc(NC(=O)c4cc(C(F)(F)F)cnn4)ccc3C)nc(NCCO)n2)ccn1 and give its measured pIC50.
Reply: 6.30 to 7.00

Task item: Given CNC(=O)c1cc(-c2cc(-c3cc(NC(=O)c4cc(C5CC5)cnn4)ccc3C)cc(N[C@H](C)CO)n2)ccn1 , state its recorded pIC50.
Reply: 6.30 to 7.00

Task item: Look up pIC50 for this compound: CNC(=O)c1cc(-c2cc(-c3cc(NC(=O)c4cc(C(C)(F)F)cnn4)ccc3C)cc(OCCO)n2)ccn1
Reply: 6.30 to 7.00

Continuing:
Task item: Looking for the measured pIC50 of CNC(=O)c1cc(-c2cc(N)cc(-c3cc(NC(=O)c4cc(C(F)(F)F)cnn4)ccc3C)c2)ccn1 , can you help?
Reply: 6.00 to 6.30

Task item: Need pIC50, item CNC(=O)c1cc(-c2cc(-c3cc(NC(=O)c4cc(C(C)(F)F)cnn4)ccc3C)ccn2)ccn1
Reply: 6.30 to 7.00

Hey, just so you know, these numbers are from patent US20260176260A1.
